experimental-target: Neutrophil elastase (Homo sapiens)
Sequence (P08246 whole entry): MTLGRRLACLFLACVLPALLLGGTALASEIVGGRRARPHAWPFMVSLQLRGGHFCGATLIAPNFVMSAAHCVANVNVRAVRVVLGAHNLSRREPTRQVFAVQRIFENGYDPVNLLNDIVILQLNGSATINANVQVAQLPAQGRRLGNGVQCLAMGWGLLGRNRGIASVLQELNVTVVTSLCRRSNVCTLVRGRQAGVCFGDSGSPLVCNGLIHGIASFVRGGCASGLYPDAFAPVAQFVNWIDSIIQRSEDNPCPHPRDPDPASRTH
assay-info: Component deacylation rate constant for interaction with human leukocyte elastase
pKi: −log10 of the molar value.
measure: pKi

Past entries and their recorded results:
compound | measure | value-measured
O=c1oc(C(F)(F)F)nc2ccccc12 | pKi | 6.80
Cc1cccc2nc(NC(C)C)oc(=O)c12 | pKi | 8.80
COc1cc2nc(SCc3c[nH]cn3)oc(=O)c2cc1OC | pKi | 6.00
COc1cc2nc(SCc3ccccc3)oc(=O)c2cc1OC | pKi | 5.70
CCSc1nc2ccc(C)cc2c(=O)o1 | pKi | 6.80
COC(=O)[C@@H](CC(C)C)Nc1nc2ccccc2c(=O)o1 | pKi | 7.40
Cc1cccc2c(=O)oc(NC(C)C)nc12 | pKi | 6.20
COC(=O)[C@H](CC(C)C)Nc1nc2ccccc2c(=O)o1 | pKi | 6.80
O=c1oc(C(F)(F)C(F)(F)C(F)(F)F)nc2ccccc12 | pKi | 7.00
CCSc1nc2ccc(NC(C)=O)cc2c(=O)o1 | pKi | 5.80

(A) O=c1oc(C(F)(F)C(F)(F)F)nc2ccccc12
(B) CCOC(=O)[C@H](C)Nc1nc2ccccc2c(=O)o1
Between these two entries, A and B , state which has the higher pKi. Answer = label.
A
(A: 7.00, B: 6.10)

(1) CCCNc1nc2cccc(C)c2c(=O)o1
(2) CCCCNc1nc2ccccc2c(=O)o1 [2-Butylamino-benzo[d][1,3]oxazin-4-one]
Sorting ascending by pKi, which comes first: 1 or 2 ? Answer = label.
2
(2: 7.10, 1: 8.20)
